All figures here come from patent US20210380703A1.

Quick list: optical density per entry.
- ASSAY_TARGET: Mouse ACVR2A (mouse, UniProt P27038 20-135, limits assumed); note: test concentration or dose not given here
- Sequence (P27038 20-135 limits assumed): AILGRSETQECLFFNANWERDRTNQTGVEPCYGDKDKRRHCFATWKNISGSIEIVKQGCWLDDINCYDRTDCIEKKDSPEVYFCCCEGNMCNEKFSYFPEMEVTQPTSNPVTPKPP
- EXPERIMENT_NOTES: ELISA
Unit OD implied. Number only.

A selection of reference data follows.
| BINDER | READOUT | READOUT_NUMBER |
| --- | --- | --- |
| 376_A02 (antibody, V domains shown, VH/VL only) VH: EVQLLESGGGLVQPGGSLRLSCAASGFTFSSYSMNWVRQAPGKGLEWVAGINYNGGYKSYADSVKGRFTISRDNSKNTLYLQMNSLRAEDTAVYYCARGATWHDTHLDYWGQGTLVTVSS VL: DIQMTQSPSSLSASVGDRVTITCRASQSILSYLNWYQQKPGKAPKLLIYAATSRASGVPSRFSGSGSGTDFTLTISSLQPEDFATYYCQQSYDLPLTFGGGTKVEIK | optical density | 3.63 |
| 371_E12 (antibody, V domains shown, VH/VL only) VH: EVQLLESGGGLVQPGGSLRLSCAASGFTFDSYSMNWVRQAPGKGLEWVSGINYNSGYKSYADSVKGRFTISRDNSKNTLYLQMNSLRAEDTAVYYCARGATWHDTHLDYWGQGTLVTVSS VL: DIQMTQSPSSLSASVGDRVTITCRASQSILSYLNWYQQKPGKAPKLLIYAATSLASGVPSRFSGSGSGTDFTLTISSLQPEDFATYYCQQSYDTPLTFGGGTKVEIK | optical density | 2.99 |
| 370_F02 (antibody, V domains shown, VH/VL only) VH: EVQLLESGGGLVQPGGSLRLSCAASGFTFDSYGMNWVRQAPGKGLEWVANINYNGGYTGYADSVKGRFTISRDNSKNTLYLQMNSLRAEDTAVYYCARGATWHDTHLDYWGQGTLVTVSS VL: DIQMTQSPSSLSASVGDRVTITCRASQSILSYLNWYQQKPGKAPKLLIYAVTSRHSGVPSRFSGSGSGTDFTLTISSLQPEDFATYYCQQSYDSPLTFGGGTKVEIK | optical density | 2.89 |
| 366_H07 (antibody, V domains shown, VH/VL only) VH: EVQLLESGGGLVQPGGSLRLSCAASGFTFSSYGMHWVRQAPGKGLEWVSGINYNGGYTSYADSVKGRFTISRDNSKNTLYLQMNSLRAEDTAVYYCARSANWHDTALDYWGQGTLVTVSS VL: DIQMTQSPSSLSASVGDRVTITCRASQSIISYVNWYQQKPGKAPKLVIYAVTSRASGVPSRFSGSGSGTDFTLTISSLQPEDFATYYCQQSYENPLTFGGGTKVEIK | optical density | 2.67 |

*Q* Would you kindly share the measured optical density for 365_H03 (antibody, V domains shown, VH/VL only) VH: EVQLLESGGGLVQPGGSLRLSCAASGFTFDDYGMNWVRQAPGKGLEWVAGINYNGGYKSYADSVKGRFTISRDNSKNTLYLQMNSLRAEDTAVYYCARSANWHDTALDYWGQGTLVTVSS VL: DIQMTQSPSSLSASVGDRVTITCRASQSILSYVNWYQQKPGKAPKLVIYAATSLHSGVPSRFSGSGSGTDFTLTISSLQPEDFATYYCQQSYNNPLTFGGGTKVEIK ?
*A* 2.65
